The values you see were collected from PubChem BioAssay (EPA / NIEHS).

- Read-out: Forkhead box O3 (FOXO3), FOXO3 (gene 2309)
- test method notes: LTEA_HepaRG_FOXO3: Life Technologies and Expression Analysis (LTEA) Assay for Forkhead box O3 (FOXO3) using HepaRG (AID 2283459)
- details: mRNA level, 48 h; actives raise or lower the signal
- Protocol: LTEA_HepaRG is a cell based, multiplexed-readout assay that uses HepaRG, a human liver cell line, with measurements taken at 48 hours after chemical dosing on a 96-well plate.LTEA_HepaRG_FOXO3 is one of 102 assay component(s) measured in the LTEA HepaRG cell culture assay. It is a marker of Cell proliferation, survival, death.Data from the assay component LTEA_HepaRG_FOXO3 was analyzed into 1 endpoint. […]
Active and inactive are the calls of the source. The calls were made as follows: active = hit-call score of the fitted dose curve at least 0.9, where 1 is the maximum; inactive = score below 0.9.
// one of active, inactive, no free text

stdin: For `CC1=C(/C=C/C(C)=C/C=C/C(C)=C/CO)C(C)(C)CCC1` , what call appears in the results of this test?
stdout: inactive

New cases:
stdin: What classification did `CC(C)(C)c1cc(O)c(C(C)(C)C)cc1O` end up with in this test?
stdout: inactive

stdin: And the next one, `COc1ccc(S(=O)(=O)N2C(=O)[C@@](c3ccccc3OC)(N3C[C@H](O)C[C@H]3C(=O)N(C)C)c3cc(Cl)ccc32)c(OC)c1` ?
stdout: inactive

stdin: Can you check `COCCOCCOC` next?
stdout: active

stdin: Entry `CC(C)c1ccc(C(=O)N=C(N)N)cc1S(C)(=O)=O` please
stdout: active

stdin: Another: `Oc1ccc2ccccc2c1N=Nc1ccccc1`
stdout: active

stdin: What do you have for `CCCCCCCCCCCCCO` ?
stdout: inactive

====

- Read-out: Cytochrome P450 3A7 (Homo sapiens)
- test method notes: LTEA_HepaRG_CYP3A7: Life Technologies and Expression Analysis (LTEA) Assay for CYP3A7 using HepaRG (AID 2283492)
- details: mRNA level, 48 h; actives raise or lower the signal
Activity calls are given as the source filed them. Rule for the calls: active = hit-call score of the fitted dose curve at least 0.9, where 1 is the maximum; inactive = score below 0.9.
The categories you may choose from are T for active, F for inactive

stdin: Can you look up the reported call for `C[Si]1(C)O[Si](C)(C)O[Si](C)(C)O[Si](C)(C)O1` for me?
stdout: F

***
stdin: For `CCNc1cccc(C)c1` , which call appears in the assay record?
stdout: F

stdin: Now consider `CCCc1cc(=O)[nH]c(=S)[nH]1` .
stdout: F

stdin: Now the same for `CNC(=O)[C@H]1O[C@@H](n2cnc3c(NCc4cc(Cl)ccc4OCc4cc(C)no4)ncnc32)[C@H](O)[C@@H]1N`
stdout: F

stdin: Entry to check: `COc1ccc(S(=O)(=O)N2C(=O)[C@@](c3ccccc3OC)(N3C[C@H](O)C[C@H]3C(=O)N(C)C)c3cc(Cl)ccc32)c(OC)c1`
stdout: T

====

- Read-out: Cytochrome P450 (CYP1A2), CYP1A2 (gene 1544)
- test method notes: LTEA_HepaRG_CYP1A2: Life Technologies and Expression Analysis (LTEA) Assay for Cytochrome P450 (CYP1A2) using HepaRG (AID 2283479)
- details: mRNA level, 48 h; actives raise or lower the signal
Active and inactive are the calls of the source. The calls were made as follows: active = hit-call score of the fitted dose curve at least 0.9, where 1 is the maximum; inactive = score below 0.9.
Use one of these outcomes when replying: TRUE (active), FALSE (inactive)

Consider the worked cases shown below.
stdin: // outcome(item) with item = `Cc1cccc(C)c1O`
stdout: FALSE

stdin: For `CCCCCCC(=O)OCC` then?
stdout: TRUE

stdin: Also `CCOc1ccc2c(c1)C(C)=CC(C)(C)N2` , if possible.
stdout: TRUE

stdin: Follow-up item: `C=CCOC(=O)c1ccccc1C(=O)OCC=C`
stdout: FALSE

stdin: Now this one: `CCCCc1ccc2c(n1)[C@@H](c1ccc(OC)cc1C[C@H](C)C(=O)O)[C@H](C(=O)O)[C@H]2c1ccc2c(c1)OCO2`
stdout: FALSE

stdin: Let us now turn to `NCC1(Cc2noc(=O)[nH]2)CCCCC1`
stdout: FALSE

More entries:
stdin: Field: outcome | Entry: CCCCC(CC)COC(=O)CC(C(=O)OCC(CC)CCCC)S(=O)(=O)O (configuration not stated)
stdout: TRUE

====

- Read-out: MYC, MYC (gene 4609)
- test method notes: LTEA_HepaRG_MYC: Life Technologies and Expression Analysis (LTEA) Assay for MYC using HepaRG (AID 2283518)
- details: mRNA level, 48 h; actives raise or lower the signal
Active and inactive are the calls of the source. Rule for the calls: active = hit-call score of the fitted dose curve at least 0.9, where 1 is the maximum; inactive = score below 0.9.
Permitted responses: active, inactive

stdin: Name the outcome recorded for `CCCCc1ccc2c(n1)[C@@H](c1ccc(OC)cc1C[C@H](C)C(=O)O)[C@H](C(=O)O)[C@H]2c1ccc2c(c1)OCO2` in the assay.
stdout: inactive

stdin: Next molecule: `O=C(N[C@@H](Cc1ccccc1)[C@@H](O)C(=O)N1C[C@@H](O)[C@@H](O)C1)c1cc2cc(Cl)ccc2[nH]1`
stdout: inactive

stdin: # repeat for Cc1nc(-c2ccc3c(c2)CCN(CCC2CCC(NC(=O)/C=C/c4ccc(F)cc4)CC2)CC3)no1 (centres undefined)
stdout: inactive

stdin: Follow-up item: `Oc1ccc2ccccc2c1N=Nc1ccccc1`
stdout: active

More entries:
stdin: Hi team, can someone confirm the assay call for `O=c1c(O)c(-c2ccc(O)c(O)c2)oc2cc(O)cc(O)c12` ?
stdout: inactive

stdin: Can you check `CCOC(=O)CCC(=O)OCC` next?
stdout: inactive

stdin: // same read-out, input: `Nc1ccc2c(c1)C(=O)c1ccccc1C2=O`
stdout: active

stdin: Let us now turn to `CCCCCCCCCCCCCO`
stdout: inactive

stdin: Next entry: `O=C(O)Cc1ccccc1Nc1c(Cl)cccc1Cl`
stdout: inactive

stdin: Follow-up item: `CCCCCC(=O)O`
stdout: inactive

stdin: What do you have for `Cc1ccc(C(C)C)c(O)c1` ?
stdout: inactive

stdin: For `Cc1ccc(Cl)cc1` then?
stdout: inactive

====

- Read-out: CD38, CD38 (gene 952)
- test method notes: BSK_SAg_CD38: BioMAP Diversity Plus: SAg Assay for CD38 Biomarker Activity (AID 2283087)
- details: primary human HUVEC with PBMC; actives raise or lower the signal
Calls of active or inactive are those of the source. Rule for the calls: active = hit-call score of the fitted dose curve at least 0.9, where 1 is the maximum; inactive = score below 0.9.
Form entry, call: pick from active, inactive

Illustrative cases are given below, each with its answer.
stdin: Answer briefly: the call reported for `CCCCCCOCCO` in this assay.
stdout: inactive

stdin: Moving on to `COC(=O)c1ccc(O)cc1`
stdout: inactive

stdin: Now consider `Nc1ccccc1N` .
stdout: inactive

stdin: Next: `CN1CCN(Cc2cc(-c3ccc4[nH]c(=O)oc4c3)co2)[C@@H](c2ccc(F)cc2)C1`
stdout: active

stdin: Repeat for the following molecule: `CCCCCCC(=O)OCC`
stdout: inactive

Now consider a different molecule.
stdin: Identify the outcome logged in this assay for the molecule shown: `CC(C)c1ccc(C(=O)N=C(N)N)cc1S(C)(=O)=O`
stdout: inactive

====

- target entity: Estrogen receptor (Homo sapiens)
- test method notes: OT_ERa_GFPERaERE_0120: Odyssey Thera (OT) 2-hour HeLa Transcription Induction Assay for Estrogen Receptor (AID 2283382)
- Method: OT_ERa_GFPERaERE_0120 is a cell-based, single-readout assay that uses HeLa, a human cervix cell line, with measurements taken at 2 hours after chemical dosing in a 384-well plate.OT_ERa_GFPERaERE_0120 is one of one assay component(s) measured or calculated from the OT_ERa_GFPERaERE_0120 assay. […] This assay endpoint, OT_ERa_EREGFP_0120, was analyzed in the positive analysis fitting direction relative to DMSO as the negative control and baseline of activity. […]
The source made the active and inactive calls. Rule for the calls: active = hit-call score of the fitted dose curve at least 0.9, where 1 is the maximum; inconclusive = response in the unintended direction; inactive = score below 0.9.
Outcome field: choose from T (active), F (inactive)

Take a look at these entries with their results.
stdin: Which outcome did this test record for the compound `Cc1c(C(=O)O)c(O)cc2c1C(=O)c1c(O)c([C@@H]3O[C@H](CO)[C@@H](O)[C@H](O)[C@H]3O)c(O)c(O)c1C2=O` ?
stdout: F

stdin: // repeat for `CN[C@H]1CC[C@@H](c2ccc(Cl)c(Cl)c2)c2ccc(S(N)(=O)=O)cc21` and report
stdout: F

stdin: What about this compound? `COc1cc(S(=O)(=O)O)c(C)cc1N=Nc1c(O)ccc2cc(S(=O)(=O)O)ccc12`
stdout: F

stdin: Similarly, `O=C(N[C@@H](Cc1ccccc1)[C@@H](O)C(=O)N1C[C@@H](O)[C@@H](O)C1)c1cc2cc(Cl)ccc2[nH]1` ?
stdout: F

stdin: Also `CC1=C(/C=C/C(C)=C/C=C/C(C)=C/CO)C(C)(C)CCC1` , if possible.
stdout: F

More entries:
stdin: I'd appreciate the recorded outcome for `C[C@]12C=CC(=O)C=C1CC[C@@H]1[C@@H]2C(=O)C[C@@]2(C)[C@H]1CC[C@]2(O)C(=O)CO` from this test.
stdout: F

stdin: Same again, this time with `COC(=O)c1ccc(O)cc1`
stdout: F

stdin: What do you get for `Nc1nc(N)c2nc(CNc3ccc(C(=O)N[C@@H](CCC(=O)O)C(=O)O)cc3)cnc2n1` ?
stdout: F

stdin: Subsequent entry: `O=c1[nH]cc(F)c(=O)[nH]1`
stdout: F

stdin: Entry to check: `Cc1cc(NC(=O)C(=O)O)cc(C)c1Oc1ccc(O)c2c1CCC2`
stdout: F

stdin: Same again, this time with `C=CCOC(=O)c1ccccc1C(=O)OCC=C`
stdout: T

stdin: What do you get for `CCOc1ccc2c(c1)C(C)=CC(C)(C)N2` ?
stdout: F

stdin: Let us now turn to `Cc1cc(=O)[nH]c(=S)[nH]1`
stdout: F

stdin: # iterate: `CCCCCCCCCCCCCO`
stdout: F

stdin: Request: CC1(C)CC(N=C=O)CC(C)(CN=C=O)C1 (stereo not given)
stdout: F

stdin: # repeat for `C1CCC(SSC2CCCCC2)CC1`
stdout: F

stdin: One more compound: `Nc1ccc2c(c1)C(=O)c1ccccc1C2=O`
stdout: F

stdin: Try this compound too: `CC(=O)OCCOCCOCCOC(C)=O`
stdout: F

stdin: Same again, this time with `CCCCc1ccc2c(n1)[C@@H](c1ccc(OC)cc1C[C@H](C)C(=O)O)[C@H](C(=O)O)[C@H]2c1ccc2c(c1)OCO2`
stdout: F

stdin: Queued: `Cc1cccc(Nc2cc(Cl)nc(SCC(=O)O)n2)c1C`
stdout: F
